Assay conditions: in methanol, 303.15 K

{"columns": ["Compound", "solubility (mole fraction)"],
 "data": [
  ["CC1(C)COP(=O)(C(Nc2ccccc2)c2ccccc2)OC1 (stereo unspecified)", 0.0045]
]}

###

Assay conditions: in THF, 322.65 K

{"columns": ["Molecule", "solubility (mole fraction)"],
 "data": [
  ["CC1(C)COP(=O)(C(Nc2ccccc2)c2ccccc2)OC1 (stereo unspecified)", 0.0187]
]}

###

Assay conditions: in 1,2-dichloroethane, 328.15 K

{"columns": ["Compound", "solubility (mole fraction)"],
 "data": [
  ["CC1(C)COP(=O)(C(Nc2ccccc2)c2ccccc2)OC1 (stereo unspecified)", 0.0437]
]}

###

Assay conditions: in 1,2-dichloroethane, 333.15 K

{"columns": ["Molecule", "solubility (mole fraction)"],
 "data": [
  ["CC1(C)COP(=O)(C(Nc2ccccc2)c2ccccc2)OC1 (stereo unspecified)", 0.0526]
]}

###

Assay conditions: in dichloromethane, 308.35 K

{"columns": ["Compound", "solubility (mole fraction)"],
 "data": [
  ["CC1(C)COP(=O)(C(Nc2ccccc2)c2ccccc2)OC1 (stereo unspecified)", 0.0274]
]}

###

Assay conditions: in benzene, 318.05 K

{"columns": ["Molecule", "solubility (mole fraction)"],
 "data": [
  ["CC1(C)COP(=O)(C(Nc2ccccc2)c2ccccc2)OC1 (stereo unspecified)", 0.00519]
]}

###

Assay conditions: in tetrachloromethane, 302.17 K

{"columns": ["Molecule", "solubility (mole fraction)"],
 "data": [
  ["CC1(C)COP(=O)(C(Nc2ccccc2)c2ccccc2)OC1 (stereo unspecified)", 0.00051]
]}

###

Assay conditions: in methanol, 313.15 K
Readout kind: solubility (mole fraction)

{"columns": ["Compound", "Measured value"],
 "data": [
  ["CC1(C)COP(=O)(C(Nc2ccccc2)c2ccccc2)OC1 (stereo unspecified)", 0.00662]
]}

###

Assay conditions: in acetonitrile, 303.25 K
Readout kind: solubility (mole fraction)

{"columns": ["Compound", "Measured value"],
 "data": [
  ["CC1(C)COP(=O)(C(Nc2ccccc2)c2ccccc2)OC1 (stereo unspecified)", 0.0119]
]}

###

Assay conditions: in 1,4-dioxane, 293.65 K

{"columns": ["Molecule", "solubility (mole fraction)"],
 "data": [
  ["CC1(C)COP(=O)(C(Nc2ccccc2)c2ccccc2)OC1 (stereo unspecified)", 0.00739]
]}

###

Assay conditions: in benzene, 293.25 K

{"columns": ["Compound", "solubility (mole fraction)"],
 "data": [
  ["CC1(C)COP(=O)(C(Nc2ccccc2)c2ccccc2)OC1 (stereo unspecified)", 0.00201]
]}

###

Assay conditions: in isopropanol, 288.35 K

{"columns": ["Compound", "solubility (mole fraction)"],
 "data": [
  ["CC1(C)COP(=O)(C(Nc2ccccc2)c2ccccc2)OC1 (stereo unspecified)", 0.00066]
]}

###

Assay conditions: in 1,2-dichloroethane, 298.15 K

{"columns": ["Compound", "solubility (mole fraction)"],
 "data": [
  ["CC1(C)COP(=O)(C(Nc2ccccc2)c2ccccc2)OC1 (stereo unspecified)", 0.0191]
]}

###

Assay conditions: in 1,2-dichloroethane, 323.15 K
Readout kind: solubility (mole fraction)

{"columns": ["Compound", "Measured value"],
 "data": [
  ["CC1(C)COP(=O)(C(Nc2ccccc2)c2ccccc2)OC1 (stereo unspecified)", 0.0395]
]}
